EXPERIMENTAL DETAILS: chemical genetic growth profiling, strain panel (AID 1159580);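 also: tested at 20 µM; growth read once vehicle control cultures reached saturation at 30 °C; 1 = growth at the plate median or of vehicle wells; lower values mean less growth of the strain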
COND: S. cerevisiae deletion strains, growth OD, locus YNL207W, strain RIO2
Hit rate of the full screen: of about 5,500 compounds, about 2,000 (36%) were called active. Roughly 18% stayed inconclusive and do not appear here. Rule as the data show it: active = normalized growth mostly below about 0.91 (no sharp cut-off); inconclusive = no clear call, values can overlap the other calls; inactive = mostly above about 0.92. The list shows a part of the results.
Pick one and only one: active, inactive

A selection of reference data follows.
1. Nc1ccc(Oc2ccc(Cl)cc2C2CCCCC2)nc1: inactive
2. COc1ccc(-c2cn3cc(C)ccc3n2)cc1: inactive
3. Cc1ccc(-c2nc(NS(=O)(=O)c3cccc4nonc34)sc2C)cc1Cl: inactive
4. CC1=CC(=O)N(c2ccc(OC(F)(F)F)cc2)C1=O: active
5. Clc1ccc(Oc2ccnc3cc(Cl)ccc23)cc1: inactive
6. Cc1cccc(N=NC(C(=O)C(F)(F)F)=C(O)c2cccs2)c1: inactive

Consider the record given below.
Assay outcome for Clc1ccccc1-c1csc(-c2ccncc2)n1 : what was it?
inactive

###

EXPERIMENTAL DETAILS: chemical genetic growth profiling, strain panel (AID 1159580);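 also: tested at 20 µM; growth read once vehicle control cultures reached saturation at 30 °C; 1 = growth at the plate median or of vehicle wells; lower values mean less growth of the strain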
COND: S. cerevisiae deletion strains, growth OD, locus YGL078C, strain dbp3, stronger effect = lower value
Among all 5,500 compounds or so, about 2,000 (36%) were called active. Inconclusive results (about 18%) are left out. This is one part of the list.
Consider the following compounds; for each one, report its normalized growth.

Example compounds with recorded normalized growth:
1) CC(=O)O[C@@H]1CC2C(C)(C)C(=O)C3OC3[C@]2(C)C2CC[C@@]3(C)[C@H](c4ccoc4)OC(=O)C4OC43[C@@]21C (some centres not stated): 0.997 (inactive)
2) O=C(O)C(O)C(O)C(O)C(O)C(=O)O (configuration not stated): 0.994 (inactive)
3) CN1CCC[C@@H]1CCO[C@](C)(c1ccccc1)c1ccc(Cl)cc1: 0.99 (inactive)
4) CC(=O)C1CCC2C3CCC4C[C@H](O)CCC4(C)C3C[C@H](O)C12C (some centres not stated): 0.995 (inactive)

Quick one: give me normalized growth for each item below, same order please.
1. Clc1ccc(C(c2ccccc2Cl)C(Cl)Cl)cc1 (configuration not stated)
2. NCCCNCCSP(=O)(O)O

["0.99 (inactive)", "0.987 (inactive)"]

Provide reported normalized growth for each item, in the same order as listed.
1. C[C@]12CCC3c4ccc(OC(=O)c5ccccc5)cc4CCC3C1CCC2=O (some centres not stated)
2. C[C@]12CCC3c4ccc(O)cc4CCC3C1CCC2=O (some centres not stated)
3. c1ccc2c(CC3=NCCN3)cccc2c1
4. CC(=O)Oc1ccc2c(c1)CCC1C2CC[C@]2(C)C(=O)CCC12 (some centres not stated)
5. NCCCCCC(=O)O

1.01 (inactive)
0.969 (inactive)
1.02 (inactive)
1.02 (inactive)
1 (inactive)

Could you tell me normalized growth for each of these compounds? They are listed below.
1. O=C(O)CCCCCCCC(=O)O
2. NCCCC(=O)O
3. NCCCCC(=O)O
4. CC(C)(S)[C@@H](N)C(=O)O
5. CC(=O)O[C@H]1C[C@@H](OC(C)=O)C(C)(C)C2C[C@@H](OC(C)=O)[C@]3(C)C(CC[C@@]4(C)[C@H](c5ccoc5)OC(=O)[C@H]5O[C@]543)[C@]21C (some centres not stated)
6. C=NC(C(=O)NC1C(=O)N2C1SC(C)(C)C2C(=O)O)c1ccccc1 (configuration not stated)

1: 0.983 (inactive); 2: 1.03 (inactive); 3: 0.989 (inactive); 4: 0.991 (inactive); 5: 0.997 (inactive); 6: 1 (inactive)
